# Substrate: C=CCO[C@@H]1O[C@H](CO)[C@@H](O[C@@H]2O[C@H](CO)[C@H](O[C@H]3O[C@H](CO)[C@H](O)[C@H](O[C@@H]4O[C@H](CO)[C@H](O)[C@H](O)[C@H]4NC(C)=O)[C@H]3O)[C@H](O)[C@H]2O)[C@H](O)[C@H]1O
# assay-notes: UDP release, Michaelis-Menten fit
# Format: biochemical, Homo sapiens
# protocol-conditions: 10 mM UDP-sugar (UDP-Gal) fixed, 20 mM HEPES pH 7.4, 0.1 mM MnCl2
reported-property: kcat (s⁻¹)
# output: bare number, implied unit s⁻¹

A selection of reference data follows.
soluble β3GalT5-1 (HEK293) (Homo sapiens; Q69A) (protein, soluble luminal domain N29-V310, no TM; expressed in HEK293 cells, complex-type N-glycans) NPFKEQSFVYKKDGNFLKLPDTDCRQTPPFLVLLVTSSHKALAERMAIRQTWGKERMVKGKQLKTFFLLGTTSSAAETKEVDQESQRHGDIIQKDFLDVYYNLTLKTMMGIEWVHRFCPQAAFVMKTDSDMFINVDYLTELLLKKNRTTRFFTGFLKLNEFPIRQPFSKWFVSKSEYPWDRYPPFCSGTGYVFSGDVASQVYNVSKSVPYIKLEDVFVGLCLERLNIRLEELHSQPTFFPGGLRFSVCLFRRIVACHFIKPRTLLDYWQALENSRGEDCPPV: 0.012
soluble β3GalT5-1 (HEK293) (Homo sapiens; Q69A/S66A) (protein, soluble luminal domain N29-V310, no TM; expressed in HEK293 cells, complex-type N-glycans) NPFKEQSFVYKKDGNFLKLPDTDCRQTPPFLVLLVTSAHKALAERMAIRQTWGKERMVKGKQLKTFFLLGTTSSAAETKEVDQESQRHGDIIQKDFLDVYYNLTLKTMMGIEWVHRFCPQAAFVMKTDSDMFINVDYLTELLLKKNRTTRFFTGFLKLNEFPIRQPFSKWFVSKSEYPWDRYPPFCSGTGYVFSGDVASQVYNVSKSVPYIKLEDVFVGLCLERLNIRLEELHSQPTFFPGGLRFSVCLFRRIVACHFIKPRTLLDYWQALENSRGEDCPPV: 0.00783
soluble β3GalT5-1 (HEK293) (Homo sapiens; S66A) (protein, soluble luminal domain N29-V310, no TM; expressed in HEK293 cells, complex-type N-glycans) NPFKEQSFVYKKDGNFLKLPDTDCRQTPPFLVLLVTSAHKQLAERMAIRQTWGKERMVKGKQLKTFFLLGTTSSAAETKEVDQESQRHGDIIQKDFLDVYYNLTLKTMMGIEWVHRFCPQAAFVMKTDSDMFINVDYLTELLLKKNRTTRFFTGFLKLNEFPIRQPFSKWFVSKSEYPWDRYPPFCSGTGYVFSGDVASQVYNVSKSVPYIKLEDVFVGLCLERLNIRLEELHSQPTFFPGGLRFSVCLFRRIVACHFIKPRTLLDYWQALENSRGEDCPPV: 0.0777

The record that follows has no kcat shown yet.
Problem: Which measured kcat value corresponds to soluble β3GalT5-1 (HEK293) (Homo sapiens; Q69M) (protein, soluble luminal domain N29-V310, no TM; expressed in HEK293 cells, complex-type N-glycans) NPFKEQSFVYKKDGNFLKLPDTDCRQTPPFLVLLVTSSHKMLAERMAIRQTWGKERMVKGKQLKTFFLLGTTSSAAETKEVDQESQRHGDIIQKDFLDVYYNLTLKTMMGIEWVHRFCPQAAFVMKTDSDMFINVDYLTELLLKKNRTTRFFTGFLKLNEFPIRQPFSKWFVSKSEYPWDRYPPFCSGTGYVFSGDVASQVYNVSKSVPYIKLEDVFVGLCLERLNIRLEELHSQPTFFPGGLRFSVCLFRRIVACHFIKPRTLLDYWQALENSRGEDCPPV ?
Solution: 0.0107
